Exercise: for every item that follows, state its recorded % efficacy versus CDNP on NPR-A, membrane cGMP assay.
- measuredOn: human natriuretic peptide receptor A (NPR-A) (human) (UniProt P16066)
- Sequence (P16066 33-1061): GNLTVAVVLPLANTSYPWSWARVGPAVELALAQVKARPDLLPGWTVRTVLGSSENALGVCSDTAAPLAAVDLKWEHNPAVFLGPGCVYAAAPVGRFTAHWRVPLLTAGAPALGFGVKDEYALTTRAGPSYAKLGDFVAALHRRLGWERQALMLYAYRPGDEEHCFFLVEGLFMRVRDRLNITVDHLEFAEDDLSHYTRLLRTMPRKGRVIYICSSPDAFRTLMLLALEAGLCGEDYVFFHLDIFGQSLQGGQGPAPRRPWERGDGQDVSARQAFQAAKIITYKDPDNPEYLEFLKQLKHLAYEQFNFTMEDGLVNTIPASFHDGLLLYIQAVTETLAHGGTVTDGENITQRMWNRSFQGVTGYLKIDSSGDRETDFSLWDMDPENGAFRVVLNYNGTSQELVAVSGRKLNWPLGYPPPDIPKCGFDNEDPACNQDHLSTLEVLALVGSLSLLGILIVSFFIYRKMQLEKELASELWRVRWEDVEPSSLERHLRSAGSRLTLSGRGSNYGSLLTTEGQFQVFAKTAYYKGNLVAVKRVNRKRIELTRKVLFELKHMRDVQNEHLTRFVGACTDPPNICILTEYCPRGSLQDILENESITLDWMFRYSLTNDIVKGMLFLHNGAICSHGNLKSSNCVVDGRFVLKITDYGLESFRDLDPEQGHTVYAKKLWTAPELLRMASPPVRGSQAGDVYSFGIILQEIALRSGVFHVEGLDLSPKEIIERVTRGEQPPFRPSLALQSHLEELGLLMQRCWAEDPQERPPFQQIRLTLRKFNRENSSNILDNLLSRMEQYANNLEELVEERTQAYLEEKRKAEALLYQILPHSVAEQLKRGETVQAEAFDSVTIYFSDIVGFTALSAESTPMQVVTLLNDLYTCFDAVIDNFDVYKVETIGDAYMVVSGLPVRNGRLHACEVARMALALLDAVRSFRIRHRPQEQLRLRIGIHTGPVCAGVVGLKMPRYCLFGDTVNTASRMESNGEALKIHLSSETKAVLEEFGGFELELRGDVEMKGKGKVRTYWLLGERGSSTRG
- testSummary: cell-based or functional assay
Ends that are not written are not given here.

## Input Quick one: % efficacy versus CDNP on NPR-A, membrane cGMP assay of GLSKGCFGLKLDRIGSMSGLGCPSLRAPRPNAPSTSA (ends and bridges not checked; cysteine pairing not given here) [CDNP-A5] ?
## Output 114%

## Input What about this binder? GLSKGCFGLKLDRIGSMSGLGCPSSRAPRPNAPSTSA (ends and bridges not checked; cysteine pairing not given here) [CDNP-S3A5]
## Output 36%

## Input Now this one: GLSKGCFGLKLDRIGSMSGLGCPSLADPRPNAPSTSA (ends and bridges not checked; cysteine pairing not given here) [CDNP-A4]
## Output 90%

## Input GLSKGCFGLKLDRIGSMSGLGCPSLAAPRPNAPSTSA (ends and bridges not checked; cysteine pairing not given here) [CDNP-A4A5] ?
## Output 49%
